Every entry's value here was drawn from PubChem BioAssay (NCI).

Each entry below carries its recorded TGI.
- Test system: KM12 colon
- procedureText: NCI tumour cell line growth inhibition, 48 h

NC1CCCCC1N.O=C1C=C/C(=C(/c2ccc(O)c(Br)c2)c2ccccc2S(=O)(=O)[O-])C=C1Br.O=C1C=C/C(=C(/c2ccc(O)c(Br)c2)c2ccccc2S(=O)(=O)[O-])C=C1Br.[Pt+4]: > 100 µM
CN/C=C(\C(=O)c1ccc(OC)c(OC)c1)c1ccc(OC)cc1: 29.5 µM

Reported TGI ( "COC(=O)c1cc(=O)n(-c2ccc3nn(C)nc3c2)cc1C(=O)OC" ) = > 100 µM

* * *

- Test system: MDA-N
- procedureText: NCI tumour cell line growth inhibition, 48 h
readoutKind: TGI

Solved cases below.
CC(C)(Oc1ccc(Cl)cc1)C(=O)N(C(=O)N1CCCCC1)c1ccccc1: > 100 µM
CCc1n[nH]c(=O)n1/N=C(\C)c1ccc([N+](=O)[O-])cc1: > 100 µM
COC(=O)c1cc(=O)n(-c2ccc3nn(C)nc3c2)cc1C(=O)OC: > 100 µM
Oc1ccc2c3c1OC1c4[nH]ncc4C[C@H]4[C@@H](C2)N(CC2CC2)CC[C@]314 (stereo partly specified): > 100 µM
COc1ccc2c(=O)cc(-c3ccc(OC)c(OC)c3OC)oc2c1: > 100 µM
CNC1c2ccccc2C(=O)c2cc3c(cc21)OCCOCCOCCOCCO3 (stereo unspecified): > 100 µM

Recorded TGI (compound "Cc1c(/C=N/NC(=S)Nc2ccc(Cl)cc2)c(=O)n(-c2ccccc2)n1C" ): > 100 µM

Data point: "Cn1c(=O)c2nc3c(=O)n(C)c(=O)n(CC(N)=O)c3nc2n(C)c1=O" ; TGI = > 100 µM

The value of TGI measured for the compound CC1(CO)COS(=O)OC1 (stereo unspecified) turned out to be > 100 µM

Note to self: TGI recorded for "CCN(CC)CC[n+]1ccc2c(C)c3[nH]c4ccc(O)cc4c3c(C)c2c1" was 25.7 µM

The measured TGI associated with "CCOC(=O)CC[C@H](NC(=O)N[C@H](C)c1ccccc1)C(=O)OCC" reads 38.2 µM

TGI reported for this compound CC(=O)OCC1OC(N2C(c3ccccc3)=CC(c3ccco3)C(C#N)=C2S)C(OC(C)=O)C(OC(C)=O)C1OC(C)=O (stereo unspecified) : > 53.9 µM
